- experimental-system: CD137 expressed on cells (CHO cells expressing CD137); Jurkat cells of the Promega CD137 luciferase reporter … (UniProt Q07011 24-255, limits assumed)
- Sequence (Q07011 24-255 limits assumed): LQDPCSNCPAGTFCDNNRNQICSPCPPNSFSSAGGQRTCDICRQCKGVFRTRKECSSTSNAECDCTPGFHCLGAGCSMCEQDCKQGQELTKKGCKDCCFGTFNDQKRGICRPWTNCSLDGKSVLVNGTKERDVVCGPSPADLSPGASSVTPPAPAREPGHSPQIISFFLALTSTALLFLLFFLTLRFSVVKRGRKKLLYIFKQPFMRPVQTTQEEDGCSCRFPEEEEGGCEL
- protocol: cell-based or functional assay
Starred links: 1 amine or outer side, 2 acyl side, 3 side chain; linkers in the order of their positions; H or OH if unused. Positions of bridges follow the written chain, without caps; N, C: chain ends. Non-standard residues stand in square brackets, D forms with d. Chains are numbered I, II in the order given. No end group written: not given here. *: point of attachment. TATA = O=C(CC[*:1])N1CN(C(=O)CC[*:2])CN(C(=O)CC[*:3])C1; tBuAla = CC(C)(C)C[C@H](N)C(=O)O; Nle = CCCC[C@H](N)C(=O)O; Pent4ynoyl = C#CCCC(=O)*; Dap = NC[C@H](N)C(=O)O; βAla = NCCC(=O)O; Sar = CNCC(=O)O
observed-property: EC50 (nM), CD137 reporter assay, co-culture with RKO (PD-L1)
Give the number; nM is assumed, so skip it.

Item: heterotandem bicyclic peptide complex BCY11380 (not fully specified; BCY8920: N-terminal acetyl; tBuAla1, D-Lys4 bearing the linker, Nle12; Ci, Cii, Ciii on TATA scaffold; BCY10861: N-terminal acetyl; K(PYA)9 bearing the linker; Ci, Cii, Ciii on TATA scaffold) peptide 1: SDKCSAGWLTMCQXLHLCPSH peptide 2: CXPEKPYCFADPYXCA | EC50 (nM), CD137 reporter assay, co-culture with RKO (PD-L1): 34

Item: heterotandem bicyclic peptide complex BCY10580 (linker I:14-I:22-I:28, II:1-II:8-II:15 via TATA; not fully specified (C-terminus); numbers in words are those of the source; also: linker to a chain's N/C-terminus via PEG12) peptide 1: {Pent4ynoyl-βAla}-[Sar][Sar][Sar][Sar][Sar][Sar][Sar][Sar][Sar][Sar]SDKCSAGWLTMCQKLHLC peptide 2: Ac-C[tBuAla]PE[dA]PYCFADPY[Nle]C[Dap] | EC50 (nM), CD137 reporter assay, co-culture with RKO (PD-L1): 28

Item: heterotandem bicyclic peptide complex BCY11017 (not fully specified; BCY8919: N-terminal acetyl; tBuAla1, Lys3 bearing the linker, D-Ala4, Nle12; Ci, Cii, Ciii on TATA scaffold; BCY10861: N-terminal acetyl; K(PYA)9 bearing the linker; Ci, Cii, Ciii on TATA scaffold) peptide 1: SDKCSAGWLTMCQXLHLCPSH peptide 2: CXPKAPYCFADPYXCA | EC50 (nM), CD137 reporter assay, co-culture with RKO (PD-L1): 66

With those in mind, consider the next binder.
Item: heterotandem bicyclic peptide complex BCY10582 (not fully specified; BCY9172: N-terminal acetyl; tBuAla1, D-Ala4, Nle12; C-terminal Dap (diaminopropionic acid) bearing the linker; Ci, Cii, Ciii on TATA scaffold; BCY10045: free N-terminus (NH2-); K(PYA)9 bearing the linker; Ci, Cii, Ciii on TATA scaffold) peptide 1: SDKCSAGWLTMCQXLHLC peptide 2: CXPEAPYCFADPYXC | EC50 (nM), CD137 reporter assay, co-culture with RKO (PD-L1): 28
